Listed here: items and their measured MIC Staphylococcus aureus 209p.
Test system: Staphylococcus aureus 209p
assaySummary: MIC, plate method, standard strains
Assay type: cell-based
runConditions: Table 3, standard strain, Heart infusion agar pH 7.4; unit assumed

compound: CCCCCCN1CCN(C(=O)NC(C(=O)NC2C(=O)N3C2SC(C)(C)C3C(=O)O)c2ccccc2)C(=O)C1=O (single isomer, unassigned)
MIC Staphylococcus aureus 209p: 0.2 µg/mL
--
compound: CN1CCN(C(=O)NC(C(=O)NC2C(=O)N3C2SC(C)(C)C3C(=O)O)c2ccc(O)cc2)C(=O)C1=O (single isomer, unassigned)
MIC Staphylococcus aureus 209p: < 0.4 µg/mL
--
compound: CC1(C)SC2C(NC(=O)C(NC(=O)N3CCN(C4CCCC4)C(=O)C3)c3ccccc3)C(=O)N2C1C(=O)O (single isomer, unassigned)
MIC Staphylococcus aureus 209p: < 1.57 µg/mL
--
compound: CC1(C)S[C@@H]2[C@H](NC(=O)[C@H](NC(=O)N3CCN(C(=O)Nc4ccccc4)C(=O)C3)c3ccccc3)C(=O)N2[C@H]1C(=O)O
MIC Staphylococcus aureus 209p: < 1.57 µg/mL
--
compound: CC1(C)SC2C(NC(=O)C(NC(=O)N3CCN(c4ccccc4)C(=O)C3=O)c3ccccc3)C(=O)N2C1C(=O)O (single isomer, unassigned)
MIC Staphylococcus aureus 209p: < 1.57 µg/mL
--
compound: CN1CCN(C(=O)NC(C(=O)NC2C(=O)N3C2SC(C)(C)C3C(=O)O)c2ccccc2)C(=O)C1=O (single isomer, unassigned)
MIC Staphylococcus aureus 209p: < 1.57 µg/mL
